TESTED TARGET: T1r2a/T1r3 full-length receptor (Oryzias latipes, UniProt A0A173M094+A0A173M0G2)
Sequence (A0A173M0G2 entry or part of it): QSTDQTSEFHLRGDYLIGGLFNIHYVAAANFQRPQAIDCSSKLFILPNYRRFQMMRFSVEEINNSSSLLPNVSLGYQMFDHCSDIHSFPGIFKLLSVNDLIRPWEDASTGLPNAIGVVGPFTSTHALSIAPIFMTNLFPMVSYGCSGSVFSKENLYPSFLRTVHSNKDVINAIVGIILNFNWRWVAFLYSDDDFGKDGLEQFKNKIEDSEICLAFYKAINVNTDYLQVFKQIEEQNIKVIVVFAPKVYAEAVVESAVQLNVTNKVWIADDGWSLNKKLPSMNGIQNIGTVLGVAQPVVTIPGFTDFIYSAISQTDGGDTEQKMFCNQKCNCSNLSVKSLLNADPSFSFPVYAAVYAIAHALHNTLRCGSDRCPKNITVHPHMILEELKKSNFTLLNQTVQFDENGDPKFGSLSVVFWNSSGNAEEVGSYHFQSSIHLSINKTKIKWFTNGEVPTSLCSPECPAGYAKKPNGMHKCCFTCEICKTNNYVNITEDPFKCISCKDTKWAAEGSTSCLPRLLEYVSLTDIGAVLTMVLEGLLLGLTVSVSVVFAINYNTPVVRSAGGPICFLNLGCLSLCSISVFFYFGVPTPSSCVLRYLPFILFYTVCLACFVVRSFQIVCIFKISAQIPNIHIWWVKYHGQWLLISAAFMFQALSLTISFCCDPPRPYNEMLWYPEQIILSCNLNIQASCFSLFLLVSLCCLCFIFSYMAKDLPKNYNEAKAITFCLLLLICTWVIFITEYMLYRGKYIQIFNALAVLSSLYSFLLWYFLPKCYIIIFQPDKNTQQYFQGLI
Sequence (A0A173M094 entry or part of it): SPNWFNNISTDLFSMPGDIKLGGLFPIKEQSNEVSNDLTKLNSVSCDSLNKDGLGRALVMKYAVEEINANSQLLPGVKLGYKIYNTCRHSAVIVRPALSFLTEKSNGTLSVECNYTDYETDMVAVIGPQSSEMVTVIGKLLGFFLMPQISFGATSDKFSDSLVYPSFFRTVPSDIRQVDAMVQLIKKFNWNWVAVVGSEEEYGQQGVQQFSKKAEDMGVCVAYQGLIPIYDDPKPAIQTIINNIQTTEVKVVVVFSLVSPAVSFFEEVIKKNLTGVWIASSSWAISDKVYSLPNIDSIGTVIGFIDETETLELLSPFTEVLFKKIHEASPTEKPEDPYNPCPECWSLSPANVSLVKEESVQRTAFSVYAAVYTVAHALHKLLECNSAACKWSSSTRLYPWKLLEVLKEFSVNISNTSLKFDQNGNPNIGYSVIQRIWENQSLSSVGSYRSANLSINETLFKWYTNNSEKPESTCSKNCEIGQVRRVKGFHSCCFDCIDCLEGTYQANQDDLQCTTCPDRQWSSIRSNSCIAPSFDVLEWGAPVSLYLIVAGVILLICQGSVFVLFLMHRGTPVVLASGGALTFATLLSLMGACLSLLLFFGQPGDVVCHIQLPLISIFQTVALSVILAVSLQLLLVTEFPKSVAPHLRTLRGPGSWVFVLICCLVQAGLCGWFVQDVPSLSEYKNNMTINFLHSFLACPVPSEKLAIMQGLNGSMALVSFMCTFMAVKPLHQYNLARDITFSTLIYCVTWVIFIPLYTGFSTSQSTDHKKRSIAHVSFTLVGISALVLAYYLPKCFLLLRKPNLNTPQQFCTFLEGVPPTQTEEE
ASSAY NAME: Ca2+-flux receptor response assay in Flip-In 293 cells stably expressing full-length T1r2a, T1r3 and Gα16-gust44
Type: cell-based, O. latipes
MEASUREMENT PARAMETERS: EC50-est, estimated from ΔRFU at 5 mM by Hill equation, ΔRFUmax 104.3
MEASURED QUANTITY: EC50
For clarity, give the value followed by its unit.

NCCCC[C@H](N)C(=O)O [L-Lys, L-lysine]; 55.1 mM

Now examine the next entry.
Entry N=C(N)NCCC[C@H](N)C(=O)O [L-Arg, arginine] has what EC50? 2.65 mM

Attribution: paper PMC6777825
